Values from ChEMBL document CHEMBL3244169

- System: Mus musculus
- test: Neuroleptic activity in ip dosed ICR-DUB mouse assessed as survival administered 5 days prior to d-amphetamine challenge measured after 24 hrs
- Type: functional
Measured ED50, listed per entry for reference.

Take a look at these entries with their results.
compound: CC(=O)c1ccc2c(c1)N(CCCN1CCC(C(=O)c3ccc(F)cc3)CC1)c1ccccc1S2.O.O=C(O)/C=C/C(=O)O
ED50: 60 mg/kg
--
compound: O=C(O)/C=C/C(=O)O.O=C(c1ccc(F)cc1)C1CCN(CCCN2c3ccccc3Sc3ccc(C(F)(F)F)cc32)CC1 [DUOPERONE FUMARATE]
ED50: 28.4 mg/kg

Attention now shifts to the item below.
Name the recorded ED50 of the item O=C(O)/C=C/C(=O)O.O=C(c1ccc(F)cc1)C1CCN(CCCN2c3ccccc3Sc3ccc(Cl)cc32)CC1 in your answer.
> 60 mg/kg

* * *

- System: Mus musculus
- test: Neuroleptic activity in ip dosed ICR-DUB mouse assessed as survival administered 2 days prior to d-amphetamine challenge measured after 24 hrs
- Type: functional
observable: ED50
State the value with its unit after it.

compound: O=C(O)/C=C/C(=O)O.O=C(c1ccc(F)cc1)C1CCN(CCCN2c3ccccc3Sc3ccc(Cl)cc32)CC1
result: 4.6 mg/kg

Provide ED50, recorded with Mus musculus, of O=C(O)/C=C/C(=O)O.O=C(c1ccc(F)cc1)C1CCN(CCCN2c3ccccc3Sc3ccc(C(F)(F)F)cc32)CC1 [DUOPERONE FUMARATE]
4.7 mg/kg

Provide ED50, recorded with Mus musculus, of OC1(c2ccc(Cl)c(C(F)(F)F)c2)CCN(CCCC(c2ccc(F)cc2)c2ccc(F)cc2)CC1
3 mg/kg

* * *

Measured Activity, listed per entry for reference.
- Tested on: Mus musculus
- test: Neuroleptic activity in mouse assessed as suppression of conditioned avoidance behavior by measuring mean correct responses level at 10 mg/kg, ip administered 2 hrs prior to electric shock challenge
- Format: functional
- test_conditions: route intraperitoneal
Give just the numeric value; % need not be written.

Take a look at these entries with their results.
compound: O=C(O)/C=C/C(=O)O.O=C(c1ccc(F)cc1)C1CCN(CCCN2c3ccccc3Sc3ccc(Cl)cc32)CC1
units_text: %
Activity: 38

compound: CC(=O)c1ccc2c(c1)N(CCCN1CCC(C(=O)c3ccc(F)cc3)CC1)c1ccccc1S2.O.O=C(O)/C=C/C(=O)O
units_text: %
Activity: 61

compound: CN(C)CCCN1c2ccccc2Sc2ccc(Cl)cc21
units_text: %
Activity: 28

compound: O.O=C(O)/C=C/C(=O)O.O=C(c1ccc(F)cc1)C1CCN(CCCN2c3ccccc3Sc3ccccc32)CC1
units_text: %
Activity: 70

compound: O=C(c1ccc(Cl)c(Cl)c1)C1CCN(CCCN2c3ccccc3Sc3ccc(Cl)cc32)CC1
units_text: %
Activity: 97

Attention now shifts to the item below.
Name the recorded Activity of the item O=C(O)/C=C/C(=O)O.O=C(c1ccc(F)cc1)C1CCN(CCCN2c3ccccc3Sc3ccc(C(F)(F)F)cc32)CC1 [DUOPERONE FUMARATE] in your answer.
88

* * *

- System: Mus musculus
- test: Neuroleptic activity in ip dosed ICR-DUB mouse assessed as survival administered 2 days prior to d-amphetamine challenge measured after 24 hrs
- Format: functional
observable: ED50 (mg/kg)
Give just the numeric value; mg/kg need not be written.

Take a look at these entries with their results.
compound: CC(=O)c1ccc2c(c1)N(CCCN1CCC(C(=O)c3ccc(F)cc3)CC1)c1ccccc1S2.O.O=C(O)/C=C/C(=O)O
observable: ED50
units_text: mg/kg
quantitative_readout: 22.5
--
compound: O=C(CCCN1CCC(O)(c2ccc(Cl)cc2)CC1)c1ccc(F)cc1 [HALOPERIDOL]
observable: ED50
units_text: mg/kg
quantitative_readout: 16

Attention now shifts to the item below.
Name the recorded ED50 of the item O.O=C(O)/C=C/C(=O)O.O=C(c1ccc(F)cc1)C1CCN(CCCN2c3ccccc3Sc3ccccc32)CC1 in your answer.
12.1
